Assay: physchem
Settings: 40 °C, aqueous with cosolvent or surfactant or cyclodextrin, Solubility of ST-246, 40 ° C.
measured property: solubility (mg/mL)
The reply should be a number in mg/mL, with the unit left off.

Input: Determine its reported solubility: O=C(NN1C(=O)C2C3C=CC(C4CC34)C2C1=O)c1ccc(C(F)(F)F)cc1 (stereo not shown) [ST-246]
Output: 11.2

----------
Assay: physchem
Conditions: 37 °C, aqueous with cosolvent or surfactant or cyclodextrin, range of ST-246 solubilized by cyclodextrin
measured property: solubility

Input: Could you please provide reported solubility for O=C(NN1C(=O)C2C3C=CC(C4CC34)C2C1=O)c1ccc(C(F)(F)F)cc1 (stereo not shown) ? Thanks!
Output: 1500 to 11000 µg/mL
